Experiment: Half-life in Sprague-Dawley rat at 1 mg/kg, iv measured up to 24 hrs by LC-MS/MS analysis
Type: ADME, organism-based
Details: in vivo
Measure: half-life (h)
Answers are plain numbers, in h.

Reported half-life, molecule `CCCOc1ccc(NC(=O)CN2CCN(C)CC2)cc1-c1nc(CC)c(CC)c(=O)[nH]1` : ____
2.4

###

Assay: MRT in Sprague-Dawley rat at 1 mg/kg, iv measured up to 24 hrs by LC-MS/MS analysis
Type: ADME, organism-based
Details: in vivo
Measure: MRT (h)
One number for each entry, in h.

Reported MRT, compound `CCCOc1ccc(NC(=O)CN2CCN(C)CC2)cc1-c1nc(CC)c(CC)c(=O)[nH]1` : ____
2.22

###

Experiment: Cmax in Beagle dog at 0.5 mg/kg, po measured up to 24 hrs by LC-MS/MS analysis
Format: ADME, organism-based, Canis lupus familiaris
Parameters: dose 0.5 mg/kg, route oral
Conditions: in vivo
Measure: Cmax
Give the value; after it, write the unit.

Reported Cmax, compound `CCCOc1ccc(NC(=O)CN2CCN(C)CC2)cc1-c1nc(CC)c(CC)c(=O)[nH]1` : ____
66.5 ng/mL

###

Target: High affinity cAMP-specific and IBMX-insensitive 3',5'-cyclic phosphodiesterase 8A (Homo sapiens, UniProt O60658)
Sequence (O60658 whole entry): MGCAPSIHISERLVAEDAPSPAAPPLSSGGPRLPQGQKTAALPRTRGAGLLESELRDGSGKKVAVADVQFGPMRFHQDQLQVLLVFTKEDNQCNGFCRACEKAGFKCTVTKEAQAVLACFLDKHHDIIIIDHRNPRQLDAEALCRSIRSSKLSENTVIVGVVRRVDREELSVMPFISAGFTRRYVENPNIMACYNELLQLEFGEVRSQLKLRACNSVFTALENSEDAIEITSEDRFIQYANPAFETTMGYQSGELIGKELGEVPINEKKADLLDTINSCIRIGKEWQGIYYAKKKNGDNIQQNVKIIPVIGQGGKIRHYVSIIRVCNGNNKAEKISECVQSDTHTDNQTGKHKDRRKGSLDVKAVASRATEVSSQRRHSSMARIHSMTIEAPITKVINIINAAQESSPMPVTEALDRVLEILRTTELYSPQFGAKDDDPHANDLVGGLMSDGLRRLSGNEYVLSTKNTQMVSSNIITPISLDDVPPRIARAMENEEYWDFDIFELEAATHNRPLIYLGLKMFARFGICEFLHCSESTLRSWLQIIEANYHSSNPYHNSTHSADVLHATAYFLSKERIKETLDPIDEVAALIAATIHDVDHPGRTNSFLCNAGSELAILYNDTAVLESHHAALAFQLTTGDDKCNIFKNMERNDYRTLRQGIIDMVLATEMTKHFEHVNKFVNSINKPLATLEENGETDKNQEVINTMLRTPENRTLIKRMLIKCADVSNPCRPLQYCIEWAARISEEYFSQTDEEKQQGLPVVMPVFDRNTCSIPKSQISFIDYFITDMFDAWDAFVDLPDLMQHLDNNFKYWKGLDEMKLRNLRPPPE
pIC50: −log10 of the molar value.
Measure: pIC50

Reported pIC50, compound `CN1CC(=O)N2[C@H](c3ccc4c(c3)OCO4)c3[nH]c4ccccc4c3C[C@@H]2C1=O` : ____
< 5.00

###

Would you kindly list Ratio IC50 for each of these compounds?
Species: Homo sapiens
Assay: Selectivity ratio of IC50 for N-terminal GST-tagged human PDE6C to IC50 for N-terminal GST-tagged human PDE5A1
Give bare numbers.

Check out these entries, answers already filled in.
• CCCOc1ccc(NC(=O)CCCNC(C)=O)cc1-c1nc(CC)c(CC)c(=O)[nH]1 = 7
• CCCOc1ccc(NC(N)=O)cc1-c1nc(CC)c(CC)c(=O)[nH]1 = 17
• CCCOc1ccc(S(=O)(=O)N2CCC[C@H]2C(=O)O)cc1-c1nc(CC)c(CC)c(=O)[nH]1 = 20

Now look at this one.
Reported Ratio IC50, compound `CCCOc1ccc(NC(=O)C(=O)N2CCN(C)CC2)cc1-c1nc(CC)c(CC)c(=O)[nH]1` : ____
17

###

Experiment: Half-life in Sprague-Dawley rat at 1 mg/kg, po measured up to 24 hrs by HPLC analysis
Type: ADME, organism-based
Details: in vivo
Measure: half-life (min)
Give bare numbers, in min.

Reported half-life, molecule `CCCc1nn(C)c2c(=O)[nH]c(-c3cc(S(=O)(=O)N4CCN(C)CC4)ccc3OCC)nc12` : ____
39

###

Test: MRT in Sprague-Dawley rat at 1 mg/kg, po measured up to 24 hrs by LC-MS/MS analysis
Type: ADME, organism-based
Details: in vivo
Measure: MRT

Reported MRT, compound `CCCOc1ccc(NC(=O)CN2CCN(C)CC2)cc1-c1nc(CC)c(CC)c(=O)[nH]1` : ____
5.56 h

###

Test: MRT in Beagle dog at 0.5 mg/kg, po measured up to 24 hrs by LC-MS/MS analysis
Type: ADME, organism-based, Canis lupus familiaris
Conditions: in vivo
Measure: MRT (h)
One number for each entry, in h.

Reported MRT, compound `CCCOc1ccc(NC(=O)CN2CCN(C)CC2)cc1-c1nc(CC)c(CC)c(=O)[nH]1` : ____
7.21

###

Species: Homo sapiens
Assay: Selectivity ratio of IC50 for N-terminal GST-tagged human PDE6C to IC50 for N-terminal GST-tagged human PDE5A1
Measure: Ratio IC50
Give bare numbers.

* CCCOc1ccc(NC(=O)CC)cc1-c1nc(CC)c(CC)c(=O)[nH]1 | 11
* CCCOc1ccc(N)cc1-c1nc(CC)c(CC)c(=O)[nH]1 | 10
* CCCOc1ccc(NC(=O)C2CCN(C)CC2)cc1-c1nc(CC)c(CC)c(=O)[nH]1 | 24

Go through the list and state Ratio IC50 for each entry.
1. CCCOc1ccc(S(=O)(=O)N(CCO)CCN2CCOCC2)cc1-c1nc(CC)c(CC)c(=O)[nH]1
2. CCCOc1ccc(NC(=O)[C@@H]2CCCN2C(C)=O)cc1-c1nc(CC)c(CC)c(=O)[nH]1
3. CCCOc1ccc(NC(=O)N2CCCC2)cc1-c1nc(CC)c(CC)c(=O)[nH]1
4. CCCOc1ccc(NC(=O)CN2CCCCC2)cc1-c1nc(CC)c(CC)c(=O)[nH]1

1. 10
2. 10
3. 11
4. 9

Go through the list and state Ratio IC50 for each entry.
1. CCCOc1ccc(NC(=O)C(N)=O)cc1-c1nc(CC)c(CC)c(=O)[nH]1
2. CCCOc1ccc(NS(C)(=O)=O)cc1-c1nc(CC)c(CC)c(=O)[nH]1
3. CCCOc1ccc(S(=O)(=O)NCCC(=O)O)cc1-c1nc(CC)c(CC)c(=O)[nH]1

22
28
86

###

Experiment: Clearance in Sprague-Dawley rat at 4 mg/kg, iv measured up to 24 hrs by HPLC analysis
Type: ADME, organism-based
Settings: in vivo
Measure: clearance (mL/min/kg)
Answers are plain numbers, in mL/min/kg.

Reported clearance, compound `CCCc1nn(C)c2c(=O)[nH]c(-c3cc(S(=O)(=O)N4CCN(C)CC4)ccc3OCC)nc12` : ____
30.5

###

Assay: AUC (0 to infinity) in Sprague-Dawley rat at 1 mg/kg, iv measured up to 24 hrs by LC-MS/MS analysis
Type: ADME, organism-based
Set-up: dose 1 mg/kg, time infinity, route intravenous
Details: in vivo
Measure: AUC (ng·h/mL)
One number for each entry, in ng·h/mL.

Reported AUC, compound `CCCOc1ccc(NC(=O)CN2CCN(C)CC2)cc1-c1nc(CC)c(CC)c(=O)[nH]1` : ____
412

The reported measurements were obtained from ChEMBL document CHEMBL4396872.
